experiment: Metabolic stability in rat liver microsomes assessed as compound remaining at 1 uM after 30 mins; type: ADME, microsome; conditions: read-out: Stability
Measured remaining at 0.5 h, 1 µM, listed per entry for reference.
Number in %, nothing else.

## Task Query (molecule): CC(=O)N1CCN(c2ccc(Nc3ncc4c(n3)N(C)C(=O)N(c3cc(NC(=O)c5cccc(C(F)(F)F)c5)ccc3C)C4)cn2)CC1 ; field requested: remaining at 0.5 h, 1 µM
## Result 75.4

## Task Query (molecule): CCN1CCN(c2ccc(Nc3ncc4c(n3)N(C)C(=O)N(c3cc(NC(=O)c5cccc(C(F)(F)F)c5)ccc3C)C4)cc2)CC1 ; field requested: remaining at 0.5 h, 1 µM
## Result 19.7
